# Assayed Target: hPin1 (Protein interacting with NIMA (-kinase)) (Homo sapiens)
# Sequence (Q13526 whole entry): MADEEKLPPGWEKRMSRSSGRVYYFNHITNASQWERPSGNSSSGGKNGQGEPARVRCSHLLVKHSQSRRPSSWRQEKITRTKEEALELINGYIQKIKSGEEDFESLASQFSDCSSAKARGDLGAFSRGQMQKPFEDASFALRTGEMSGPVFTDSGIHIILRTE
# Assay Method Text: protease-coupled PPIase assay, hPin1
# Type: biochemical
# Run Parameters: hPin1 6 nM; substrate Ac-Ala-Ala-Ser(PO3H2)-Pro-Arg-pNA, trypsin; 35 mM HEPES pH 7.8, 6° C.; read-out: Specificity of the inhibition with rotamases, Target T-1 (IC50 class)
The compounds listed here are annotated with their IC50.

Structure Smiles String | IC50
NC(=O)[C@H](Cc1ccc2ccccc2c1)NC(=O)[C@@H]1CCCCN1C(=O)[C@H](CSCP(=O)(O)O)NC(=O)CCCc1ccccc1 | < 1 µM
NC(=O)[C@H](Cc1ccc2ccccc2c1)NC(=O)[C@@H]1CCCCN1C(=O)[C@H](CSCP(=O)(O)O)NC(=O)Cc1ccc(Cl)cc1 | < 1 µM
O=C(NCCc1ccc2ccccc2c1)[C@@H]1CCCCN1C(=O)CSCP(=O)(O)O | 1 to 10 µM

Now take the following compound into account.
Entry `NC(=O)[C@H](Cc1ccc2ccccc2c1)NC(=O)[C@@H]1CCCCN1CCSCP(=O)(O)O` needs its IC50 filled in; supply it.
< 1 µM

###

# Assayed Target: UniProt Q13526
# Assay Method Text: protease-coupled PPIase assay, hPin1
# Type: biochemical
# Run Parameters: hPin1 6 nM; substrate Ac-Ala-Ala-Ser(PO3H2)-Pro-Arg-pNA, trypsin; 35 mM HEPES pH 7.8, 6° C.; read-out: Specificity of the inhibition with rotamases, Target T-1 (IC50 class)
pIC50: −log10 of the molar value.
Quantity Name: pIC50

Compound | pIC50
NC(=O)[C@H](Cc1ccc2ccccc2c1)NC(=O)[C@@H]1CCCCN1C(=O)[C@H](CSCP(=O)(O)O)NS(=O)(=O)CCc1ccccc1 | > 6.00

Report pIC50 for O=C(NC(Cc1ccc2ccccc2c1)c1ccccc1)[C@@H]1CCCCN1C(=O)CSCP(=O)(O)O (stereo partly drawn)
> 6.00

Identify measured pIC50 associated with `NC(=O)[C@H](Cc1ccc2ccccc2c1)NC(=O)[C@@H]1CCCCN1C(=O)[C@H](CSCP(=O)(O)O)NC(=O)CCN1CCCCC1`
5.00 to 6.00

Report pIC50 for `COc1ccc(CCCC(=O)N[C@@H](CSCP(=O)(O)O)C(=O)N2CCCC[C@H]2C(=O)N[C@@H](Cc2ccc3ccccc3c2)C(N)=O)cc1`
> 6.00

Determine from records and report pIC50 for `NC(=O)[C@H](Cc1ccc2ccccc2c1)NC(=O)[C@@H]1CCCCN1C(=O)[C@H](CSCP(=O)(O)O)NC(=O)CN1CCNCC1`
5.00 to 6.00

Look up and state reported pIC50 for O=C(NC(Cc1ccc2ccccc2c1)c1nnco1)[C@@H]1CCCCN1C(=O)CSCP(=O)(O)O (stereo partly drawn)
> 6.00

Tell me measured pIC50 for `NC(=O)[C@H](Cc1ccc2ccccc2c1)NC(=O)[C@@H]1CCCCN1C(=O)[C@H](CSCP(=O)(O)O)NC(=O)Cc1ccc(-c2ccccc2)cc1` please.
> 6.00

State, in one line, measured pIC50 of `COc1ccc(CC(=O)N[C@@H](CSCP(=O)(O)O)C(=O)N2CCCC[C@H]2C(=O)N[C@@H](Cc2ccc3ccccc3c2)C(N)=O)cc1`
> 6.00

Answer with reported pIC50 of `CC(C)(C)NC(=O)[C@H](Cc1ccc2ccccc2c1)NC(=O)[C@@H]1CCCCN1CCSCP(=O)(O)O`
> 6.00

In one line, give reported pIC50 of the entry `NC(=O)[C@H](Cc1ccc2ccccc2c1)NC(=O)[C@@H]1CCCCN1C(=O)[C@H](CSCP(=O)(O)O)NS(=O)(=O)CCCc1ccccc1` .
> 6.00
